- measurement.target: T1, human IL-6 (human, UniProt P05231 30-212)
- T1 construct: also called interleukin-6
- T1 sequence (P05231 30-212 limits assumed): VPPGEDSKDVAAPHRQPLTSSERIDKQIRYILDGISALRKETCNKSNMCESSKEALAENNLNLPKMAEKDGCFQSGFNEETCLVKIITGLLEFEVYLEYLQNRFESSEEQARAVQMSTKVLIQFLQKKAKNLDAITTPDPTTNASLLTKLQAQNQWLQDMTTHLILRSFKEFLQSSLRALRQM
- protocol.notes: SPR (Biacore T200), antibody from cell supernatant captured on Protein A, IL-6 flowed over, 37 C
value.type: koff (s⁻¹)
One number for each entry, in s⁻¹.

Sample answers from the record:
>  <binder>
anti-IL-6 antibody, heavy chain T63E, G66D / light chain WT (antibody, human IgG1, V domains shown, Derived as m2; Engineered human IgG1) VH: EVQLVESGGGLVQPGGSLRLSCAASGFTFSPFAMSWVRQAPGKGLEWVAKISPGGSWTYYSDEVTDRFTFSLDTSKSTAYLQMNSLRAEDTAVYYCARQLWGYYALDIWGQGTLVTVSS VL: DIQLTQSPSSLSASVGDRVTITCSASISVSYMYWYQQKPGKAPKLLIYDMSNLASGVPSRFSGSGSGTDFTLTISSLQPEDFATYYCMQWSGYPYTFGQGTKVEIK

>  <display.unit>
s⁻¹

>  <numeric.result>
0.000464

$$$$
>  <binder>
anti-IL-6 antibody, heavy chain G66D / light chain WT (antibody, human IgG1, V domains shown, Derived as m2; Engineered human IgG1) VH: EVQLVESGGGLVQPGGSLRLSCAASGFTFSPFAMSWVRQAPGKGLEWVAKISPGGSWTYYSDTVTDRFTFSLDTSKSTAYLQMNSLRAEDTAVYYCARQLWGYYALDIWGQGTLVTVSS VL: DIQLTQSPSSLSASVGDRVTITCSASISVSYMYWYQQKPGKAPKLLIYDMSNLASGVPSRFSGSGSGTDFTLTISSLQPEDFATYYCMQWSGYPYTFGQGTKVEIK

>  <display.unit>
s⁻¹

>  <numeric.result>
0.000392

$$$$

Please give the measured koff for this binder: anti-IL-6 antibody, heavy chain T63V, G66D / light chain WT (antibody, human IgG1, V domains shown, Derived as m2; Engineered human IgG1) VH: EVQLVESGGGLVQPGGSLRLSCAASGFTFSPFAMSWVRQAPGKGLEWVAKISPGGSWTYYSDVVTDRFTFSLDTSKSTAYLQMNSLRAEDTAVYYCARQLWGYYALDIWGQGTLVTVSS VL: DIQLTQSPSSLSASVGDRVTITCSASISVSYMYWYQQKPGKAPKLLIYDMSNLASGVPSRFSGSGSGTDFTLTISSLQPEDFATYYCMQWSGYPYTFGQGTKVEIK
0.000399
